Test system: chloroquine-resistant (multidrug-resistant) PfDd2 (MRA-150) P. falciparum strain
Run description: SYBR green I-based fluorescence P. falciparum growth inhibition assay, PfDd2
Format: cell-based, Plasmodium falciparum
Cond: Plasmodium falciparum; SYBr Green based assay, 72 h, multidrug-resistant strain; read-out: IC50 ± SD PfDd2
Listed here are molecules together with their documented IC50.

Molecule: CCCCCC(=O)Cc1cc(OC)cc(O)c1C(=O)Oc1cc(CCCCC)c(C(=O)O)c(OC)c1 [compound 7, Confluentic acid]
IC50: > 25 µg/mL
//
Molecule: CCCCCCCCCCCCCCCCCCCCCCCC(=O)OCC(O)CO (stereo not drawn) [compound 8, Glyceryl-1-tetracosanoate]
IC50: > 25 µg/mL
//
Molecule: C/C(=C/CCC(C)C1CCC2(C)C3=CCC4C(C)(C)C(=O)CCC4(C)C3CCC12C)C(=O)O (stereo not drawn) [compound 13, 3-oxo-lanosta-7,24-Z-dien-26-oid acid]
IC50: 14.2 µg/mL
//
Molecule: COc1cc2c(=O)oc3c(OC)c(O)cc4c(=O)oc(c1OC)c2c34 [compound 4, 3,3′,4-tri-O-methylellagic acid]
IC50: 0.63 µg/mL
//
Molecule: CC(=O)OCC(Cc1ccccc1)NC(=O)C(Cc1ccccc1)NC(=O)c1ccccc1 (stereo not drawn) [compound 9, Auranthiamide acetate]
IC50: > 25 µg/mL
//
Molecule: CC1(C)CC[C@]2(C)CC[C@]3(C)C(=CC[C@@H]4[C@@]5(C)CC[C@H](O)C(C)(C)[C@@H]5CC[C@]43C)[C@@H]2C1 [compound 12, β-amyrin]
IC50: > 25 µg/mL

Data origin: paper PMC10303846
